- System: Mycobacterium avium
- assay_name: Antimycobacterial activity against Mycobacterium avium 330/88 after 14 days by micromethod
- Assay type: functional
- recorded_conditions: 330/88, 336 h
Attribute: MIC
Use µM as the unit, but write only the number.

Worked cases, answers included:
smi: CCNC(=O)Oc1ccc(Cl)cc1C(=O)Nc1cccc(Cl)c1
readout_unit: µM
MIC: 8
--
smi: CCCCCNC(=O)Oc1ccc(Cl)cc1C(=O)Nc1cccc(Cl)c1
readout_unit: µM
MIC: 8
--
smi: CCCCCCCCCCNC(=O)Oc1ccc(Cl)cc1C(=O)Nc1cccc(Cl)c1
readout_unit: µM
MIC: 8
--
smi: CCCCCCCCNC(=O)Oc1ccc(Cl)cc1C(=O)Nc1cccc(Cl)c1
readout_unit: µM
MIC: 4
--
smi: CCCCCCCCNC(=O)Oc1ccc(Cl)cc1C(=O)Nc1ccc(Cl)c(Cl)c1
readout_unit: µM
MIC: 4

Lab note: measured MIC of CCCCCCCCCNC(=O)Oc1ccc(Cl)cc1C(=O)Nc1cccc(Cl)c1 was 2

Lab note: measured MIC of CCCCCCCNC(=O)Oc1ccc(Cl)cc1C(=O)Nc1ccc(Cl)c(Cl)c1 was 4

Lab note: measured MIC of CCCCCCCCCCNC(=O)Oc1ccc(Cl)cc1C(=O)Nc1ccc(Cl)c(Cl)c1 was 8
